test system: KM20L2 colon; assay: NCI tumour cell line growth inhibition, 48 h
Each entry below carries its reported TGI.
Supply the numeric figure in µM, leaving out any unit text.

Worked cases, TGI given:
- Compound: "CC(C)c1ccc(O)c(Cc2cc(C(C)C)cc(Cc3cc(C(C)C)ccc3O)c2O)c1"
  TGI, µM: 5.55
- Compound: "Cc1nc2ccc(NCCN(C)C)c3c(=O)c4ccccc4n1c23"
  TGI, µM: 16.9

**Q:** Answer with the recorded TGI for the compound listed here: O=C1/C(=C/c2ccc(Cl)cc2)CCC1CNc1ccc(Cl)cc1 (configuration not stated)
**A:** 12.6

----------
system: 786-0 renal; experiment: NCI tumour cell line growth inhibition, 48 h
Each entry below carries its reported GI50.

**Q:** Answer with the recorded GI50 for the molecule listed here: COc1cc(C2CC(c3ccccc3)=NN2C=O)ccc1Oc1ccnc2cc(Cl)ccc12 (configuration not stated)
**A:** 11.5 µM

**Q:** Answer with the recorded GI50 for the molecule listed here: `Clc1ccc(C=Nc2ccc(-c3nc4ccccc4[nH]3)cc2)cc1`
**A:** > 100 µM

**Q:** Answer with the recorded GI50 for the molecule listed here: COc1ccc(-c2nsc3c2NC(=O)CC3c2ccsc2)cc1 (configuration not stated)
**A:** 1.25 µM

----------
Each entry below carries its reported TGI.
system: IGROV1 ovarian; assay: NCI tumour cell line growth inhibition, 48 h

- Molecule: "COc1cccc(NC(=O)CC(=O)NN)c1"
  Assayed Target: "IGROV1 ovarian"
  Measured Endpoint: "TGI"
  Result: "> 100 µM"
- Molecule: "COc1cccc(C2CC(=O)Nc3c2c(C)nn3-c2nc3ccccc3[nH]2)c1OC (configuration not stated)"
  Assayed Target: "IGROV1 ovarian"
  Measured Endpoint: "TGI"
  Result: "24 µM"
- Molecule: "CCOP1(=O)CC(C)=C(Cl)C(OC)C1 (configuration not stated)"
  Assayed Target: "IGROV1 ovarian"
  Measured Endpoint: "TGI"
  Result: "> 100 µM"
- Molecule: "COC(=O)/C=C(C)/C=C\\COC1CCCCO1 (configuration not stated)"
  Assayed Target: "IGROV1 ovarian"
  Measured Endpoint: "TGI"
  Result: "> 100 µM"
- Molecule: "Nc1nc(N)c2nc(CN(C=O)c3ccc(C(=O)O)cc3)cnc2n1"
  Assayed Target: "IGROV1 ovarian"
  Measured Endpoint: "TGI"
  Result: "> 100 µM"
- Molecule: "CC(=O)c1cc2c(N)c(C(=O)Nc3cccc4ccccc34)sc2nc1C"
  Assayed Target: "IGROV1 ovarian"
  Measured Endpoint: "TGI"
  Result: "> 50 µM"

**Q:** Answer with the recorded TGI for the molecule listed here: `C/C(=C\C(=O)Nc1ccc2n[nH]nc2c1)Nc1ccc2n[nH]nc2c1`
**A:** > 100 µM

**Q:** Answer with the recorded TGI for the molecule listed here: COC(=O)c1ccccc1CC1Cc2c(C)ccc(C)c2C1=O (configuration not stated)
**A:** > 100 µM

**Q:** Answer with the recorded TGI for the molecule listed here: `CCn1c(-c2nonc2N)nc2ccccc21`
**A:** > 25 µM

**Q:** Answer with the recorded TGI for the molecule listed here: COc1cc(C2CC(c3ccccc3)=NN2C=O)ccc1Oc1ccnc2cc(Cl)ccc12 (configuration not stated)
**A:** > 100 µM

**Q:** Answer with the recorded TGI for the molecule listed here: `COC(=O)[C@@H]1c2c(oc3cc(CO)cc(O)c3c2=O)C=C[C@H]1O`
**A:** 26.2 µM

**Q:** Answer with the recorded TGI for the molecule listed here: `CC(C)(C)N/N=C(/Cc1nc2c3c(ccc2[nH]c1=O)C(=O)c1ccccc1C3=O)C(=O)NC1=C(Cl)C(=O)c2ccccc2C1=O`
**A:** > 100 µM

**Q:** Answer with the recorded TGI for the molecule listed here: `O=C(/C=C/c1ccccc1)c1ccc(Cl)cc1Cl`
**A:** 40.5 µM

**Q:** Answer with the recorded TGI for the molecule listed here: NC(=S)NNCC(=O)CC(O)(C(F)(F)F)C(F)(F)Cl (configuration not stated)
**A:** > 100 µM

----------
test system: UO-31 renal; test: NCI tumour cell line growth inhibition, 48 h; in the data active means GI50 below about 0.43 µM; inactive means the rest
One label from this list, please: active, inactive

Reference set, count: 4
- Compound: "Nc1ncn([C@H]2CC(O)[C@@H](CO)S2)c(=O)n1 (stereo not given in full)"
  Category: "inactive"
- Compound: "COc1cccc(C2CC(=O)Nc3c2c(C)nn3-c2nc3ccccc3[nH]2)c1OC (stereo not given)"
  Category: "inactive"
- Compound: "O=c1c(I)c[nH]cc1I"
  Category: "inactive"
- Compound: "CN1CCCCC1CCN1c2ccccc2Sc2ccc(Br)cc21 (stereo not given)"
  Category: "inactive"

**Q:** Could you check what this test reported for `CC(=O)c1cc2c(N)c(C(=O)Nc3cccc4ccccc34)sc2nc1C` ?
**A:** inactive

**Q:** Could you check what this test reported for `[Br][Pb]([c]1ccccc1)([c]1ccccc1)[c]1ccccc1` ?
**A:** active

**Q:** Could you check what this test reported for C=CCC(N[C@@H](CO)c1ccccc1)c1ccc2ccccc2n1 (stereo not given in full) ?
**A:** inactive

**Q:** Could you check what this test reported for CN1C2C=CC(=O)C1C1C(=O)N(c3ccccc3)C(=O)C12 (stereo not given) ?
**A:** inactive

**Q:** Could you check what this test reported for `CC[C@H](C)[C@H](NC(=O)[C@H]1CCCCN1C)C(=O)N(C)[C@H](CCc1nc(C(=O)N[C@@H](Cc2ccccc2)C[C@H](C)C(=O)O)cs1)C(C)C` ?
**A:** inactive

**Q:** Could you check what this test reported for `O=C(/C=C/c1ccc(O)c(O)c1)N1CCN(c2ccc(Cl)cc2)CC1` ?
**A:** inactive

----------
tested on: NCI-H23 lung; assay: NCI tumour cell line growth inhibition, 48 h
Each entry below carries its reported TGI.

Worked cases, TGI given:
- Compound: "CCCCNc1ncnc2c1cnn2-c1ccccc1"
  Assayed Target: "NCI-H23 lung"
  Result: "> 100 µM"
- Compound: "O=c1cc(NNc2cccc3ccccc23)[nH]c(=O)[nH]1"
  Assayed Target: "NCI-H23 lung"
  Result: "28.9 µM"
- Compound: "O=c1c(I)c[nH]cc1I"
  Assayed Target: "NCI-H23 lung"
  Result: "> 100 µM"
- Compound: "C=CCNC(=S)NNC(=O)c1c(C)nc2sccn12"
  Assayed Target: "NCI-H23 lung"
  Result: "> 100 µM"
- Compound: "CC(=O)ON(OCc1ccc2ccccc2c1)C(C)=O"
  Assayed Target: "NCI-H23 lung"
  Result: "> 100 µM"
- Compound: "COc1ccc(OC)c2c(C(C)=O)cccc12"
  Assayed Target: "NCI-H23 lung"
  Result: "> 100 µM"

**Q:** Answer with the recorded TGI for the compound listed here: `Nc1nc(SCc2ccccc2CCl)c2[nH]cnc2n1`
**A:** 36.5 µM

**Q:** Answer with the recorded TGI for the compound listed here: `CCOC(=O)C1=C(O)CC(=O)N=C1N1CCCC1`
**A:** > 100 µM

**Q:** Answer with the recorded TGI for the compound listed here: `CCCCCCCCCCCC/C=C\CC[C@@H](O)[C@H](O)CC[C@H](O)[C@@H]1CC[C@@H](CCCCCCCC2=C[C@H](C)OC2=O)O1`
**A:** 29.9 µM

**Q:** Answer with the recorded TGI for the compound listed here: CN1C2C=CC(=O)C1C1C(=O)N(c3ccccc3)C(=O)C12 (stereo not given)
**A:** 37.1 µM

**Q:** Answer with the recorded TGI for the compound listed here: `CC1=NN(c2nc(N)nc(CO)n2)C(C)(C)C1`
**A:** > 100 µM

**Q:** Answer with the recorded TGI for the compound listed here: `Cc1c(C#N)c2nnn(-c3cccc(Cl)c3)c(=O)n2c1-c1ccccc1`
**A:** > 100 µM

**Q:** Answer with the recorded TGI for the compound listed here: `CC(C)c1cc(=O)[nH]c2cc(N)ccc12`
**A:** > 100 µM

**Q:** Answer with the recorded TGI for the compound listed here: COC(=O)c1ccccc1CC1Cc2c(C)ccc(C)c2C1=O (stereo not given)
**A:** 55.2 µM

**Q:** Answer with the recorded TGI for the compound listed here: O=C1c2cc3c(cc2NC(c2ccccc2F)C1O)OCO3 (stereo not given)
**A:** > 91.5 µM

----------
Each entry below carries its reported GI50.
system: RPMI-8226 leukemia; experiment: NCI tumour cell line growth inhibition, 48 h

Worked cases, GI50 given:
- Compound: "CCn1cc(C(=O)O)c(=O)c2cc(F)c(N3CCN(S(=O)(=O)c4ccc(Cl)cc4Cl)CC3)cc21"
  GI50: "2550 nM"
- Compound: "COc1cc2c(c(OC)c1OC)-c1cc(I)c(O)cc1[C@@H](NC(C)=O)CC2"
  GI50: "35 nM"
- Compound: "O=C(Nc1cccc(-n2ccc3c(NC(=O)c4ccccc4)ncnc32)c1)Nc1ccc(Cl)c(C(F)(F)F)c1"
  GI50: "1020 nM"
- Compound: "Nc1ncn([C@H]2CC(O)[C@@H](CO)S2)c(=O)n1 (some centres not stated)"
  GI50: "6220 nM"
- Compound: "CCCCNc1ncnc2c1cnn2-c1ccccc1"
  GI50: "3760 nM"
- Compound: "COC(=O)c1c(C)nc(C)c2c1C(=O)C(Br)=C(NCc1ccccc1)C2=O"
  GI50: "3240 nM"

**Q:** Answer with the recorded GI50 for the compound listed here: CCCCCCCCCCCC1N=C(N)N=C(N)N1c1cccc(Br)c1 (configuration not stated)
**A:** 1680 nM

**Q:** Answer with the recorded GI50 for the compound listed here: `Cc1cc(N2CCC(N3CCCC3)CC2)nc(/N=C(\N)Nc2ccc(Cl)c(Cl)c2)n1`
**A:** 264 nM

**Q:** Answer with the recorded GI50 for the compound listed here: `CCCC(=O)Nc1cc(C(=O)N2C[C@H]3C[C@@]34C2=CC(=O)c2[nH]cc(C)c24)n(COC)c1`
**A:** 176 nM

**Q:** Answer with the recorded GI50 for the compound listed here: CC(C)=C[C@@H]1C[C@H](C)[C@H]2CC[C@H](C)c3c(O)c(OC4OC(C)C(O)C(O)C4O)c(C)c1c32 (some centres not stated)
**A:** 12500 nM

**Q:** Answer with the recorded GI50 for the compound listed here: `Cn1c(=O)c(-c2ccccc2Cl)cc2cnc(NC3CCOCC3)nc21`
**A:** > 15700 nM

**Q:** Answer with the recorded GI50 for the compound listed here: `[CH3][Sn]([CH3])([CH3])[S]C(=S)N1CCOCC1`
**A:** 362 nM

Values were extracted from PubChem BioAssay (NCI).
